- assay_details: Cytotoxicity against human L02 cells assessed as reduction in cell viability after 72 hrs by MTT assay
- Type: toxicity, cell-based
Below: a set of entries, each annotated with reported IC50 at 72 h.
measured_quantity: IC50 at 72 h (µM)

INSERT INTO assay_data (chemical_structure, measured_quantity, reading) VALUES
  ('C/C1=C\C=C\CC[C@H](C)CNC(=O)/C=C/C=C/[C@H](C)[C@@H](O[C@H]2C[C@H](O)[C@H](N)[C@@H](C)O2)C/C=C(\C)C1', 'IC50 at 72 h', 5.36),
  ('CN[C@H]1[C@@H](O)C[C@H](O[C@H]2C/C=C(\C)C/C(C)=C/C=C/CC[C@H](C)CNC(=O)/C=C/C=C/[C@@H]2C)O[C@@H]1C', 'IC50 at 72 h', 0.89);

====

- Tested on: HepG2
- assay_details: Cytotoxicity against human HepG2 cells assessed as reduction in cell viability after 72 hrs by MTT assay
- Assay type: functional, cell-based
- experimental_conditions: HepG2, 72 h
pIC50: −log10 of the molar value.
measured_quantity: pIC50

INSERT INTO assay_data (compound, reading) VALUES
  ('C/C1=C\C=C\CC[C@H](C)CNC(=O)/C=C/C=C/[C@H](C)[C@@H](O[C@H]2C[C@H](O)[C@H](N)[C@@H](C)O2)C/C=C(\C)C1', 5.68),
  ('CN[C@H]1[C@@H](O)C[C@H](O[C@H]2C/C=C(\C)C/C(C)=C/C=C/CC[C@H](C)CNC(=O)/C=C/C=C/[C@@H]2C)O[C@@H]1C [VICENISTATIN]', 5.70);
